Target: T1, Recombinant WNV-E protein ectodomain (West Nile virus, UniProt Q9Q6P4 291-700)
T1 construct: extracellular domain; also called rWNV-E; WNE
T1 sequence (looked up): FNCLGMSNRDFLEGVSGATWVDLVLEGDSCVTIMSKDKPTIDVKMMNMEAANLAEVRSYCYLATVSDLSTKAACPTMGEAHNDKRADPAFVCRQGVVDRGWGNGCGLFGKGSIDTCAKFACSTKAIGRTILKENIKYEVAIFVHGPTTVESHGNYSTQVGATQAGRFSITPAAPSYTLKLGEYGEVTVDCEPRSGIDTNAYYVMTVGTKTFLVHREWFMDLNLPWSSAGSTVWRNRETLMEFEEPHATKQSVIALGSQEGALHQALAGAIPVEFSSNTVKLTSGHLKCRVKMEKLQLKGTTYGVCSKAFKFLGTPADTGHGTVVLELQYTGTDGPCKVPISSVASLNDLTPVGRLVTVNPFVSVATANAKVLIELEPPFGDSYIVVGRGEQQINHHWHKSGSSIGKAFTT
Assay: SPR (Biacore 3000); scFv on NTA chip via His tag, rWNV-E in solution
QUANTITY: log10 of kon (log10 of the value in M⁻¹ s⁻¹)
Recall that a logarithmic scale is used here: each number is log10 of kon in M⁻¹ s⁻¹.

Below, each entry is followed by its recorded log10 of kon result.
BINDER	log10 of kon
scFv 85 (scFv, not shown: small tags and cut ends, also called 85 scFv; antibody 85) scFv: MAQVQLVQSGAEVKKPGASVKVSCKASGYTFSGYSTHWLRQVPGQGLEWIGWDNPSSGDTTYAENFRGRVTLTRDTSITTDYLEVRGLRSDDTAVYYCARGGDDYSFDHWGQGTLVTVSSGGGGSGGGGSGGGGSSSELTQDPAVSVALGQTVTITCQGGGLRNYYASWYQQKPGQAPVLLVYGRDNRPSGIPDRFSGSSSGNTASLTITGAQAEDEADYYCNSRDSSGNHLVFGGGTKLTVLGQPKATPSAAAEQKLISEEDL	6.70
scFv 15 (scFv, also called 15 scFv; antibody 15) scFv: MAQVQLVQSGAEVKKPGASVKVSCKASGYTFSGYSTHWLRQVPGQGLEWIGWDNPSSGDTTYAENFRGRVTLTRDTSITTDYLEVRGLRSDDTAVYYCARGGDDYSFDHWGQGTLVTVSSGGGGSGGGGSGGGGSQSALTQPASVSGSPGQSITISCTGTNSDVGIYNLVSWYQQHPGKAPKLMIYDVSNRPSGVSSRFSGSNSGNTATLTISGLQAEDEADYYCSAHAGDNTQFGGGTKLTVLSQPKAAPSAAAEQKLISEEDL	5.12
scFv 84 (scFv, also called 84 scFv; antibody 84) scFv: MAQVQLVQSGAEVKKPGASVKVSCKASGYTFSGYSTHWLRQVPGQGLEWIGWDNPSSGDTTYAENFRGRVTLTRDTSITTDYLEVRGLRSDDTAVYYCARGGDDYSFDHWGQGTLVTVSSGGGGSGGGGSGGGGSQSVLTQPPSVSVAPGKTARIPCGGNNSGTKSVHWYQQKPGQAPVLVIYDDRVRPSGIPERFSGSNSGDTATLTISRVAAGDEADYYCQVSDGSGDPPTWVFGGGTRLTVLGQPKAAPSAAAEQKLISEEDL	5.26
scFv 11 (scFv, also called 11 scFv; antibody 11) scFv: MAQVQLVQSGAEVKKPGASVKVSCKASGYTFSGYSTHWLRQVPGQGLEWIGWDNPSSGDTTYAENFRGRVTLTRDTSITTDYLEVRGLRSDDTAVYYCARGGDDYSFDHWGQGTLVTVSSGGGGSGGGGSGGGGSSSELTQDPAVSVALGQTVRITCRGDSLRSYYASWYQQKPGQAPVLVIYGENNRPSGIPDRFSGSSSGDTASLTITGAQAEDEADYYCNSRDSSDHLLLFGGGTKLTVLGQPKATPSAAAEQKLISEEDL	5.51

Batch: log10 of kon for all items listed.
1. scFv 10 (scFv, not shown: small tags and cut ends, also called 10 scFv; antibody 10) scFv: MAQVQLVQSGAEVKKPGSSVKVSCKASGYTFSGYSTHWLRQVPGQGLEWIGWDNPSSGDTTYAENFRGRVTLTRDTSITTDYLEVRGLRSDDTAVYYCARGGDDYSFDHWGQGTLVTVSSSGGGSGGGGSGGGGSQTVVTQEPSFSVSPGGTITLTCGLSSGSVFTSYYPSWYQQTPGQAPRTLIYSTNTRSSGVPDRFSGSILGNKAALTITGAQADDESDYYCVLYMGSGIGVFGTGTKVTVLGQPKAAPSAAAEQKLISEEDL
2. scFv 71 (scFv, also called 71 scFv; antibody 71) scFv: MAQVQLVQSGAEVKKPGASVKVSCKASGYTFSGYSTHWLRQVPGQGLEWIGWDNPSSGDTTYAENFRGRVTLTRDTSITTDYLEVRGLRSDDTAVYYCARGGDDYSFDHWGQGTLVTVSSGGGGSGGGGSGGGGSSYELTQPPSASGTTGQRVTISCSGSSSNIGSNTVNWYQQLPGTAPKLLIYSNNQRPSGVPDRLSGSKSGTSASLAISGLQSEDEADYYCAAWDARLTGPLFGGGTKLSVLRQPKAAPSAAAEQKLISEEDL

Ans.
1. 5.75
2. 4.97
